System: HeLa cells
Assay: Photoactivation studies (phototoxicity, MTT), dark vs blue light
Format: cell-based, human
Conditions: normoxia (21% O2), 1 h incubation then blue light 465 nm, 4 mW/cm^2, 1 h; read-out: IC50 HeLa blue light
Endpoint Label: pIC50
Reminder that pIC50 means the negative base-10 logarithm of the concentration expressed in mol/L.

Reference set, count: 3
- O=S(=O)([O-])C(F)(F)F.O=S(=O)([O-])C(F)(F)F.O=[N+]([O-])c1ccc(-n2cc(-c3nc4ccccc4s3)nn2)cc1.[Ru+2].c1cnc2c(c1)ccc1cccnc12.c1cnc2c(c1)ccc1cccnc12 [Ru4, [Ru(phen)2(L4)][OTf]2]: 4.47
- FC(F)(F)c1ccc(-n2cc(-c3nc4ccccc4s3)nn2)cc1.O=S(=O)([O-])C(F)(F)F.O=S(=O)([O-])C(F)(F)F.[Ru+2].c1cnc2c(c1)ccc1cccnc12.c1cnc2c(c1)ccc1cccnc12 [Ru3, [Ru(phen)2(L3)][OTf]2]: 4.13
- CN(C)c1ccc(-n2cc(-c3nc4ccccc4s3)nn2)cc1.O=S(=O)([O-])C(F)(F)F.O=S(=O)([O-])C(F)(F)F.[Ru+2].c1cnc2c(c1)ccc1cccnc12.c1cnc2c(c1)ccc1cccnc12 [Ru5, [Ru(phen)2(L5)][OTf]2]: 4.38

Next up:
INPUT: pIC50 lookup needed for Cc1ccc(-n2cc(-c3nc4ccccc4s3)nn2)cc1.O=S(=O)([O-])C(F)(F)F.O=S(=O)([O-])C(F)(F)F.[Ru+2].c1cnc2c(c1)ccc1cccnc12.c1cnc2c(c1)ccc1cccnc12 [Ru1, [Ru(phen)2(L1)][OTf]2] , thanks.
OUTPUT: 4.32

* * *

Tested on: CHO cells
Test: Dark cytotoxic screening, MTT test, 48 h
Assay type: cell-based
Settings: 48 h in the dark
pIC50: −log10 of the molar value.
Listed next: entries and their corresponding pIC50.

Reference set, count: 3
- FC(F)(F)c1ccc(-n2cc(-c3nc4ccccc4s3)nn2)cc1.O=S(=O)([O-])C(F)(F)F.O=S(=O)([O-])C(F)(F)F.[Ru+2].c1cnc2c(c1)ccc1cccnc12.c1cnc2c(c1)ccc1cccnc12 [Ru3, [Ru(phen)2(L3)][OTf]2]: < 4.00
- [NH2][Pt]([NH2])([Cl])[Cl] [CDDP, cisplatin, reference compound]: 5.11
- O=S(=O)([O-])C(F)(F)F.O=S(=O)([O-])C(F)(F)F.O=[N+]([O-])c1ccc(-n2cc(-c3nc4ccccc4s3)nn2)cc1.[Ru+2].c1cnc2c(c1)ccc1cccnc12.c1cnc2c(c1)ccc1cccnc12 [Ru4, [Ru(phen)2(L4)][OTf]2]: < 4.00

INPUT: GET /values?readout=pIC50&system=CHO cells&item= CN(C)c1ccc(-n2cc(-c3nc4ccccc4s3)nn2)cc1.O=S(=O)([O-])C(F)(F)F.O=S(=O)([O-])C(F)(F)F.[Ru+2].c1cnc2c(c1)ccc1cccnc12.c1cnc2c(c1)ccc1cccnc12 [Ru5, [Ru(phen)2(L5)][OTf]2]
OUTPUT: < 4.00

INPUT: Similarly, Cc1ccc(-n2cc(-c3nc4ccccc4s3)nn2)cc1.O=S(=O)([O-])C(F)(F)F.O=S(=O)([O-])C(F)(F)F.[Ru+2].c1cnc2c(c1)ccc1cccnc12.c1cnc2c(c1)ccc1cccnc12 [Ru1, [Ru(phen)2(L1)][OTf]2] ?
OUTPUT: < 4.00
